Assay: soluble on expression in E. coli; label from the status in PepcDB or PDB records
measurement_name: soluble on expression in E. coli

Use the examples below as a reference point.
MIYEFCAENVTLLEKAMQAGARRIELCDNLAVGGTTPSYGVTKAAVELAANYDTTIMTMIRPRGGDFVYNDLEIAIMLEDIRLTAQAGSQGVVFGALTADKKLDKPNLEKLIAASKGMEIVFHMAFDELSDEDQAEAIDWLSQAGVTRILTRAGVSGDSLEKRFVHYHRILEYAKGKIEILPGGGIDLENRQTFIDQVGVTQLHGTKVVFLEHHHHHH    soluble
MASQQQTVREWSGINTFAPATQTKLLELLGNLKQEDVNSLTILVMGKGGVGKSSTVNSIIGERVVSISPFQSEGPRPVMVSRSRAGFTLNIIDTPGLIEGGYINDMALNIIKSFLLDKTIDVLLYVDRLDAYRVDNLDKLVAKAITDSFGKGIWNKAIVALTHAQFSPPDGLPYDEFFSKRSEALLQVVRSGASLKKDAQASDIPVVLIENSGRCNKNDSDEKVLPNGIAWIPHLVQTITEVALNKSESIFVDKNLIDKLAAADHHHHHH    soluble
MLTERQLLIFRAIIDHFTWTIQPVGSKNLLKEKSLPYSSATIRNEMGVLEEYGFIEKTHSSSGRVPSEKGYRFYVDYLLQPKKLDKSDRQMIRSFFSENYYEMEGLIQNSALMLSDLTNYTSILLGPEATKNHLSGFRFVPINNFQAMLILITDQGHVDNHLVTIPEGTTLSDIERMVNILNERLVGLSLDDLKVQIPMEVKELLGKHVRNYESFMHVFSDSFAQASQQKVYFGGKTNILNQPEFHDINKVREMLHLMEEEQDVYELFRDIPDGLQVKIGRENNNSLMEDCSIITATYNIAGERVGGIVLLGPTRMEYSRMMGLVDVMSRDLTDVLTKLYRDNQN    not soluble
ELTLRIAYNLFTQRPKEEYDDFARWITMTGPGKGSDVYKMNGAGEMLVFSAADFEDFLEPRPDLMPAMEEELKKVVALLVEHRWPFRLHATYDESISRFLAVFEAVDREIPFRGLRWFFDHAETISNRNLERVRRLGGGIAIQDRMAFQGEYFVARYGAEAAKRTPPIARMLAMGIPVGAGTDATRVSSYNPWLSLYWLVSGKTVGGLPLYDDANRLDRTAALRLYTEGSSWFSGDNGSKGALIAGRHADLAVLSADYFAVPEARIKDIESVLTIMGGKIVHASDEFAPLAPPLPPVSPDWSPVASYGGYHGNAAVSTGLRREPCVCHSHSPAWSGPDPRFWGIGCDCFA    not soluble

# ---- query sequence ----
soluble on expression in E. coli reading for MGSDKIHHHHHHMNFQRDFNDLLNALLTDWRNQFPDADLSQGSLIYMKSACLASALWGLYKYQEWISKQIFPDTAETKYLEHHAWVRGLSRRSGETDEELLARLLEYIRRPPAGGNKYDYQKWALEIDNVANAWCIPLSQGPGTVDVIIAADETVTGSEIPSSHALTGTTTAITENKLVDGAADFMATGDGGPVRIGDIAVNDDTGGQAVITAVDNATQLTLDTDIFSSIGQSYTLKSLTAQVGEYIDDVRPVTVSIVRILPPAVTLQDVTMTVTGTVNKEAIASAITSLLRSLVPGQTLYLSRLIAIAIQEGATNASISAPAADMSPGPYEMLRPGTITVS : not soluble

----------
Experiment: soluble on expression in E. coli; label from the status in PepcDB or PDB records
measurement_name: soluble on expression in E. coli

Worked examples follow.
MAHHHHHHMTSPALAPPQNTAEFWIKRLQLVPHPEGGYYSEVVRSAHKVDNEEGNRRHAYTTIYFLCTPESPSHLHRLCSDETWMYHAGDPLQLHVILKDPQDEDRIAAQPPAAPQAETDTADARPKYQVYRRVLVGARVERGELLQYTVPGGAIFGSSVAADGADGQAGYSLVSCIVSPGFDYRDFEIFTQAQLMELYPQHEAVIKQMAYETLPNHARLQTTEI    soluble
MGSDKIHHHHHHMGHATEIQVLVVDESAPSRAFIASTLENGGYIVTSVASGEEAVHEVNAAPFDILVTDINLPGMSGLNLLKLLKDSFPDLEVVIVTSNASSFTAIKALRLGAYDFIIKPVDDPAILTNIVGRAVEKQSLTRENRRLMDDMKLKNRELHDALHLMKSANRLCTAISASLDAGEILKRLVEGAVEEVKAKKGYLLLLDRDGSSFSMKVSVGVSRTLAKGFRLRHDQGIAGLVATNNKPLRIDEEVPPPLTHRMLEEDPNGELFTTPGIVTVPLQFKGRVAGVVTLSGRADGRAFTDAEIEFLTTLANHSAIALDTAGAFYKLRKGTS    not soluble
MFLVVGQGNPGERYARTRHNLGFMVLDRLGLSFRPRGEALVAEAEGGLFLKPLTYYNLTGRAVAPLARFYKIPPERILVVHDEMDLPLGRIRFKAGGSAAGNRGVLSIEEALGTRAFHRLRLGIGKPPDPSRGAEYVLSPFREEELPVVERVLEAAKEAVWCWVREGLPPCAGRFNGLDLSLG    soluble
MHPRKIEIVTAAVTCFLERGYHQTGIRDIARQAGVSLGNLYNHFAGKEAVLAFIAELEGRELAAFVDMLSDPEEPYAALERFIWAYAAYAARPENALLGLELMAEALRNPTISQVFDGNRHQLVAALMGCLERGVSTGRFRHLDDTRALALMILDTLEGQGLRQLDRKTPDPDAVRTLCAVLTTGLLARDQSPPPVPCNTPCSSA    not soluble
MGHHHHHHSHMISAHRNLHLPGSSNSPASAFLSSWDYRHVPPCPANVVFLVEMGFLHVGQAGLELPTSDDPPTLASQSAGITGVSHRTWQEFASLTVSQAVLRMLVWGPQFENHCSKLLMASEGDSSLVFFLYPLSNLN    not soluble

// below: soluble on expression in E. coli requested for another sequence
According to the records, this sequence MCPPYGANKFSRKKVMYVIVDIQGQQMKVEQGRRLFVHHIKDVESGASVEFDKVLLVDNNGAITVGSPLVEGAKVVCEVLTPLVKGDKVLIFHKKRRKGYRKLNGHRQQFTEILVKEVVA displays soluble on expression in E. coli of not soluble

----------
Test: soluble on expression in E. coli; label from the status in PepcDB or PDB records
measurement_name: soluble on expression in E. coli

Below: 6 sequences and their reported soluble on expression in E. coli.
MAKSYDYQSAFDIIGPVMMGPSSSHTAGAVKIGNSARAVLGDMPKHIEIRYYESFAKTHQGHGTDVAIVGGAMGYSTFDSRIKSSLDIAKDENITIDIIEDEGESIGQHPNCAYIKANTKDGRYIEVIGISIGGGTIKLKGINVNGLNVELNHGLPMLVIDGNMNKAKINHLINDLSDMDLDLGEELIETNDNEGLVVFPLNKAISESALNIIKDKHSDLNVSYIK    not soluble
TSSLHPTRGKLLKRFAQIGPYIREQQCQESQFFFDCLAVCVNKKVTPEKREFWGWWMELERNGEQLIYYYQVGLFDKNGDWVNQVISKKDVIESIHETLIRFHDFLQAAVSELEMTLVPDEKMSNFPLPL    soluble
MESPSALPSLDQLLKEQGADQTLTDLILAILDRCGKIASALQGTSVDKVGSVNEFGDEQLTVDVIAENLLRSWAQSSEGSAVRAVCSEEDIHLQECHKNGEFILCWDPLDGSSIIDCNWAVGSIVSIWRIGHHGVQWQGADTLIQKTGRQQVASLIVVYGPRTTGVVAVNVDAGGIVKEGTALDLEMKDNGKFICRGKPIIKPQAKIFSPANLRAAQDLPAYKQLIEFWMEKRYTLRYTGGLVPDVYQIFVKQQGVFCNPASKAAPAKLRMCFEVLAIALVVEAAGGRTSNGQKSLLDVAIEHMDHRSALCCGSADEIKRMEETFAALSG    soluble
GSVTVPEVIASEVISYAQEENLLRKYGTVIRTAGDVKYPILVKKAEANVNKKERTTDITETAIQFDEILLDPAEFDALATVTKKLLKMSGVPVEDIVVEELKKAYVRKEINYMFNGDDAGNENPGALAKKAVAFEKPVDLTAAGAGQKLYDALIEFKNTPVTEVMKKGRFIINRAALTAIEKMKTDDGFPLLRPFTQAEGGIGYQLVGYPVDWTDAADKKGEPDTPVLYFGDFSAFKIQEVIGALEIQKLVEKFSGKNQVGFQIYNLLDGQLVYSPFEPAVYRYEITKPVGG    not soluble
MSLTGTDFHVGIVGLGSMGMGAARSCLRAGLSTWGADLNPQACANLLAEGACGAAASAREFAGVVDALVILVVNAAQVRQVLFGEDGVAHLMKPGSAVMVSSTISSADAQEIAAALTALNLNMLDAPVSGGAVKAAQGEMTVMASGSEAAFTRLKPVLDAVASNVYRISDTPGAGSTVKIIHQLLAGVHIAAAAEAMALAARAGIPLDVMYDVVTHAAGNSWMFENRMQHVVDGDYTPRSAVDIFVKDLGLVADTAKALRFPLPLASTALNMFTSASNAGYGKEDDSAVIKIFSGITLPGVTPEEGHHHHHH    soluble
GPGSMAVAAAAAAQTVAPRPPMQIGRADIAQMVASNPHVPTFSLPMNRQLEREFRTFRPVLIIAPLSTLPHWASEFQRFSRRHTAAAVSPCPGGVDAAERFTVYVLNGPRSERESRMGELLAHVERLTQQPPTPGGASGATPATPVVVIPHDMLTKPLRGALRQIRRVDWQVVAIDEAQRIKCARSFLFKKVCGLHSVSRRVLTGHTVADQHDGALPCSCAFRHRTRSSRVSCLSSWIAHCSPQVGRARWRIASCASSCAAVLIDFRCRSSCGVRGAS    soluble

response.value for MKIVAVTACPTGIAHTYMAADALMKAAPKHNVQIKVETQGAMGIENQLTPHDIAQADRVLIVSDIEIEQPGRFEGTRKIQIPIEEVLLNVDKVFLVHCRD (field: soluble on expression in E. coli) = soluble

# soluble on expression in E. coli (sequence: MSLARSMTTGRSGTIGVVVGDIENPFFSLAVRGITDVARQAGFTVILINSGEDAAAEKAAIRTLLAKRVDGLIVSPAKENDVEHLHEVIRSGLPLALLDRGSDTLEVDTVLADDRYTAENVTSRLIALGHRRIAYLTACDTPDHRFRTPQDISTGSVRRRIEGYLAVCREAGFIGMEDWVKVGAVTPERTHRIVIETLQSGHRPTAIIASDSIIGLEVFKAHRELGLNIPGDLSLVSFHDADWTSVTTPPVTVVRQPVYELGATAARLLVERLNGEDRAARKVVLKNEVVERASTRAIEGHHHHHH ) is soluble

soluble on expression in E. coli for MTNKDIYKNNPLHGTSLETVLTTLVDHYGFEILAAYMNLNCFKQNASIESSLKFLKKTQWAQEKVEAFYMYQYNSLPKADDANFELPPRDRIVPSGLEQRPPKELSLDDAEELRIKQAKKTRERAAAATSANPWGSRLEHHHHHH is not soluble

Lab note: measured soluble on expression in E. coli of MSLKAWQLENFGLDNLKQVELEKPEIAEDQILIKVNSVSLNYRDTAIVEGIYTPELLKFPFIPVSDASGIVVEIGSKVTKFKKGDRVTSHMFTKWLDGKPKSDEQSHALGATVDGGLSEYMVLNENAAVFSPETLTDNQSSTLPVAAFVNWFSLVEYGNIKAGDKVLVQGTGGVSIFAIQIASALGAEVIATSSSDEKLEKAKELGASKVINYKTHPDWEKEVQKLTNGKGVEHIVEVVGGSSIAKSIDALAFQGHIYVIGFLENMEANVNLFALLAKQARIQGVNLGHHRAFEDFNKALDQINIDPVIDTVYSFDQAKEAYEHQMKGAFGKIVIDFNEGHHHHHH was not soluble

The measured soluble on expression in E. coli associated with MSLDAELVDWELAVTTAKKLVRPGPQRSRAEADEIVSELRRLAVVAEGHVQDYTQLVPAGPPTPIAVVDRPEWVRSNVAGLRVATMPLIEKLSDQSRGRLAAAVGRRVTGVQVGSALAYLAGKVLGQFEVFLPPEEYEAGSAASAPSLAKPGAPTPVGRLSLVAPNIAHAEETLRVVPRDFRLWVCLHEQTHRSQFTAVPWLREHLESEIAAFIGATDLDPDVLADRLRSAVTALRSAVRDHGPDTPSVVEALQTPAQRAVLDRLQALMSLLEGHADQVMDAVGPQVVPTVADIRGKFDNRRSGGSPIDRFLRRLLGLDLKMQQYRQGGAFVRAVVAEVGVEGFNHVWQSPRTLPTRPELTDPGAWMLRVLGTREGHHHHHH reads soluble
